# EXPERIMENTAL PROTOCOL: chemical genetic growth profiling, strain panel (AID 1159580);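 also: tested at 20 µM; growth read once vehicle control cultures reached saturation at 30 °C; 1 = growth at the plate median or of vehicle wells; lower values mean less growth of the strain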
# EXPERIMENTAL SETUP: S. cerevisiae deletion strains, growth OD, locus YDR150W, strain NUM1, stronger effect = lower value
The campaign covered roughly 5,500 compounds. About 2,000 (36%) were called active. Inconclusive results (about 18%) are left out. Some of the results follow.
Provide the reported normalized growth of each item.

QUERY: Give the reported normalized growth for this molecule. CC1(C)C2CC(=O)[C@]3(C)C(CC[C@@]4(C)[C@H](c5ccoc5)OC(=O)[C@H]5O[C@]543)[C@@]2(C)C(=O)C[C@H]1O (stereo partly drawn)
RESULT: 1 (inactive)

QUERY: Report normalized growth for "CC1(C)O[C@H]2CC(=O)OC[C@]23[C@H]2CC[C@@]4(C)[C@H](c5ccoc5)OC(=O)[C@H]5O[C@]54[C@]2(C)C(=O)C[C@@H]13"
RESULT: 0.994 (inactive)

QUERY: Provide normalized growth value for the following molecule: CC1(C)C(=O)C=C[C@@]2(C)C1C=C[C@]1(C)C2CC[C@@]2(C)[C@H](c3ccoc3)OC(=O)C3OC321 (stereo partly drawn)
RESULT: 0.996 (inactive)

QUERY: Could you please provide reported normalized growth for "Cc1onc(-c2ccc(Cl)cc2)c1-c1ccnn1C(=O)NC(C)C" ? Thanks!
RESULT: 0.96 (inactive)

QUERY: Give recorded normalized growth. "O=[N+]([O-])c1ccc(OCCCOc2ccc([N+](=O)[O-])cc2)cc1"
RESULT: 0.988 (inactive)

QUERY: In one line, give reported normalized growth of the entry "O=[N+]([O-])c1ccc(Oc2cccc3cccnc23)cc1" .
RESULT: 1 (inactive)

QUERY: Retrieve normalized growth measured for "CC(C)(O)[C@@H]1Cc2cc3ccc(=O)oc3cc2O1" and print it.
RESULT: 1 (inactive)

QUERY: Input CC(=O)[C@@]1(O)CCC2C3C[C@H](C)C4=CC(=O)C=CC4(C)[C@@]3(F)[C@@H](O)C[C@@]21C (stereo partly drawn) , output reported normalized growth.
RESULT: 0.991 (inactive)

###

Please respond with reported normalized growth for every item in the list.
# EXPERIMENTAL PROTOCOL: chemical genetic growth profiling, strain panel (AID 1159580);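 also: tested at 20 µM; growth read once vehicle control cultures reached saturation at 30 °C; 1 = growth at the plate median or of vehicle wells; lower values mean less growth of the strain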
# EXPERIMENTAL SETUP: S. cerevisiae deletion strains, growth OD, locus YOL147C, strain pex11, stronger effect = lower value
In all, about 5,500 compounds went through this assay and about 2,000 (36%) were called active. Not shown: some 18% with an inconclusive outcome. This is one part of the list.

QUERY: Item "CC(=O)OCC1=C(C(=O)O)N2C(=O)[C@@H](NC(=O)Cc3cccs3)[C@H]2SC1" : provide normalized growth
RESULT: 0.986 (inactive)

QUERY: Given "O=C(O)C1=C[C@@H](O)[C@@H](O)[C@H](O)C1" , respond with its normalized growth.
RESULT: 0.993 (inactive)

QUERY: Let me know recorded normalized growth for "O=C(O[C@@H]1Cc2c(O)cc(O)cc2O[C@@H]1c1cc(O)c(=O)c2c(O)c(O)cc([C@H]3Oc4cc(O)cc(O)c4C[C@H]3OC(=O)c3cc(O)c(O)c(O)c3)c2c1)c1cc(O)c(O)c(O)c1" , thanks.
RESULT: 1.01 (inactive)

QUERY: Hello, please tell me recorded normalized growth for this one: "O=C(O[C@@H]1Cc2c(O)cc(O)cc2O[C@@H]1c1cc(O)c(=O)c2c(O)c(O)cc([C@H]3Oc4cc(O)cc(O)c4C[C@H]3O)c2c1)c1cc(O)c(O)c(O)c1"
RESULT: 0.862 (active)

###

Task for the reader: assign each of the following compounds its reported normalized growth.
# EXPERIMENTAL PROTOCOL: chemical genetic growth profiling, strain panel (AID 1159580);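 also: tested at 20 µM; growth read once vehicle control cultures reached saturation at 30 °C; 1 = growth at the plate median or of vehicle wells; lower values mean less growth of the strain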
# EXPERIMENTAL SETUP: S. cerevisiae deletion strains, growth OD, locus YMR223W, strain ubp8, stronger effect = lower value
About 2,000 (36%) of roughly 5,500 compounds were called active. Inconclusive results (about 18%) are left out. The list shows a part of the results.
Lab note: jot the number down without any unit.

QUERY: Annotate the compound "C=C[C@H]1CN2CC[C@H]1C[C@@H]2[C@@H](OC(=O)OCC)c1ccnc2ccc(OC)cc12" with its measured normalized growth.
RESULT: 1.01

QUERY: Quick one: give measured normalized growth for "O=c1c(O)c(-c2ccc(O)cc2O)oc2cc(O)cc(O)c12"
RESULT: 0.986

QUERY: Report normalized growth, nothing else, for this compound: "CCN1C[C@]2(C)CC[C@H](OC)[C@]34C2[C@H](O)[C@]2(OCO[C@@]25C[C@H](OC)[C@H]2C[C@]3(O)C5[C@H]2O)C14"
RESULT: 0.998

QUERY: Given the compound Cc1ccccc1OCC(O)CO (stereo not given) , write its reported normalized growth.
RESULT: 0.991

QUERY: Entry Oc1ccc2c(c1)OCC1(O)Cc3cc(O)c(O)cc3C21 (stereo not given) needs its normalized growth filled in; supply it.
RESULT: 0.981

###

I'd be grateful if you could share measured normalized growth for these entries.
# EXPERIMENTAL PROTOCOL: chemical genetic growth profiling, strain panel (AID 1159580);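 also: tested at 20 µM; growth read once vehicle control cultures reached saturation at 30 °C; 1 = growth at the plate median or of vehicle wells; lower values mean less growth of the strain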
# EXPERIMENTAL SETUP: S. cerevisiae deletion strains, growth OD, locus YMR223W, strain ubp8, stronger effect = lower value
The whole screen tested about 5,500 compounds, of which about 2,000 (36%) were called active. About 18% were inconclusive and are not listed. The list shows a part of the results.
Form rule: numeric answer, no unit written next to it.

QUERY: Tell me normalized growth reported for "C=C(C)[C@H]1COc2cc3oc(=O)ccc3cc2O1"
RESULT: 0.514

QUERY: Input "CC/C(=C(/CC)c1ccc(O)cc1)c1ccc(O)cc1" , output reported normalized growth.
RESULT: 0.942

QUERY: Specify reported normalized growth for the compound shown: "CC1(C)O[C@H]2CC(=O)OC[C@]23[C@H]2CC[C@@]4(C)[C@H](c5ccoc5)OC(=O)[C@H]5O[C@]54[C@]2(C)C(=O)C[C@@H]13"
RESULT: 0.994

QUERY: Identify normalized growth associated with the compound "NC(=NCCC[C@H](N)C(=O)O)N[N+](=O)[O-]"
RESULT: 1.05

QUERY: Hello, please tell me recorded normalized growth for this one: CC1(C)C(=O)C=C[C@@]2(C)C1C=C[C@]1(C)C2CC[C@@]2(C)[C@H](c3ccoc3)OC(=O)C3OC321 (stereo partly drawn)
RESULT: 0.963

QUERY: Answer with reported normalized growth of "CN1C(C)(C)CCCC1(C)C"
RESULT: 0.983

QUERY: For CCCCCCCCCCCCCCCCCC(=O)OC(CC(=O)O)C[N+](C)(C)C (stereo not drawn) , write its normalized growth.
RESULT: 0.406

QUERY: Indicate the recorded normalized growth value for this compound: NC(=O)NCCCC(N)C(=O)O (stereo not drawn)
RESULT: 0.998

QUERY: Give me measured normalized growth, please, for this compound: CC(C)c1c(O)ccc2c1CCC1C(C)(C)CCC[C@]21C (stereo partly drawn)
RESULT: 0.21

QUERY: Tell me measured normalized growth for COc1ccc2c(c1C(C)C)CCC1C(C)(C)C(=O)CCC21C (stereo not drawn) please.
RESULT: 0.959

QUERY: Answer with the recorded normalized growth for the compound listed here: "CCCCOc1cc(C(=O)NCCN(CC)CC)c2ccccc2n1"
RESULT: 0.987

QUERY: Entry COC(=O)C[C@H]1C(C)(C)C2(Cl)O[C@@]34CC2C(=O)[C@]1(C)C3CC[C@]1(C)C4=CC(=O)O[C@H]1c1ccoc1 (stereo partly drawn) needs its normalized growth filled in; supply it.
RESULT: 0.979

QUERY: Assign normalized growth to the following record: CC(C)C1COc2cc3oc(=O)ccc3cc2O1 (stereo not drawn)
RESULT: 0.44

QUERY: Fill in normalized growth for record COC(=O)[C@@]1(C)CCC[C@]2(C)c3ccc(O)c(C(C)C)c3CCC12 (stereo partly drawn)
RESULT: 0.828

QUERY: Please report the measured normalized growth for "CC(=O)OCC1=C(C(=O)O)N2C(=O)[C@@H](NC(=O)Cc3cccs3)[C@H]2SC1"
RESULT: 1.01

QUERY: Identify normalized growth associated with the compound "CC(C)[N+](C)(CCC(C(N)=O)(c1ccccc1)c1ccccc1)C(C)C"
RESULT: 0.987

QUERY: Indicate the recorded normalized growth value for this compound: CCC(c1ccc(O)cc1)C(CC)c1ccc(O)cc1 (stereo not drawn)
RESULT: 0.94

QUERY: # return recorded normalized growth for input COc1ccc2c3c1OC1C(O)CC=C4C(C2)N(C)CCC431 (stereo not drawn)
RESULT: 1.03

QUERY: Provide only the value of recorded normalized growth for "Cc1cc(OC(=O)c2c(C)cc(O)cc2O)cc(O)c1C(=O)O"
RESULT: 0.975

QUERY: Supply recorded normalized growth for "CCOC(=O)c1c(C)cc(O)cc1O" here.
RESULT: 0.898

QUERY: Give the reported value of normalized growth for this record: CCC(N)C(O)c1ccc(O)c(O)c1 (stereo not drawn)
RESULT: 1.02

QUERY: Please list normalized growth recorded for the compound "CCOC(=O)NC1=C(C2CC2)C(=O)C(NC(=O)OCC)=C(C2CC2)C1=O"
RESULT: 0.979

QUERY: Please look at this compound and report its normalized growth: NS(=O)(=O)c1cc(C2(O)NC(=O)c3ccccc32)ccc1Cl (stereo not drawn)
RESULT: 1.02

QUERY: Using the record for CC(=O)O[C@@H]1CC2C(C)(C)C(=O)C=C[C@]2(C)C2CC[C@@]3(C)[C@H](c4ccoc4)OC(=O)[C@H]4O[C@]43[C@@]21C (stereo partly drawn) , state its measured normalized growth.
RESULT: 1

QUERY: Give the reported value of normalized growth for this record: CC(C)c1c(O)ccc2c1CCC1[C@@](C)(CO)CCC[C@]21C (stereo partly drawn)
RESULT: 0.914

QUERY: // fetch normalized growth given entry "Cc1cc(OC(=O)c2c(C)cc(OC(=O)c3c(C)cc(O)cc3O)cc2O)cc(O)c1C(=O)O"
RESULT: 0.967

QUERY: Answer with the recorded normalized growth of CC1(C)C(=O)C=C[C@@]2(C)C1C[C@@H](O)[C@]1(C)C2CC[C@@]2(C)[C@H](c3ccoc3)OC(=O)[C@H]3O[C@]321 (stereo partly drawn) only.
RESULT: 0.997

QUERY: Consider the compound "COc1ccc(Cl)cc1C(=O)NCCc1ccc(S(=O)(=O)NC(=O)NC2CCCCC2)cc1" . State its measured normalized growth.
RESULT: 1.05

QUERY: Supply measured normalized growth of COC(=O)[C@]1(C)CCC[C@]2(C)c3ccc(C(C)C)cc3C(=O)CC12 (stereo partly drawn) in your reply.
RESULT: 1.02

QUERY: Kindly indicate its recorded normalized growth. Item: "CC[n+]1c(-c2ccccc2)c2cc(N)ccc2c2ccc(N)cc21"
RESULT: 0.825

QUERY: State its normalized growth: "CCc1cccc(CC)c1N(COC)C(=O)CCl"
RESULT: 1.02

QUERY: Provide normalized growth value for the following compound: CC(=O)Oc1ccc2c(c1C(C)C)CCC1C(C)(C)CCC[C@]21C (stereo partly drawn)
RESULT: 1.01

QUERY: Please indicate normalized growth recorded for NC(CSCSCC(N)C(=O)O)C(=O)O (stereo not drawn)
RESULT: 0.994

QUERY: Consider the compound CCCC(C)(COC(N)=O)COC(=O)NC(C)C (stereo not drawn) and give its recorded normalized growth.
RESULT: 1

QUERY: For the compound "O=C(O)C1=C[C@@H](O)[C@@H](O)[C@H](O)C1" , give its measured normalized growth value.
RESULT: 0.987

QUERY: Recall and state the measured normalized growth for "NC(=O)CN1CCCC1=O" .
RESULT: 1.01

QUERY: Output normalized growth of "O=C(O[C@@H]1Cc2c(O)cc(O)cc2O[C@@H]1c1cc(O)c(=O)c2c(O)c(O)cc([C@H]3Oc4cc(O)cc(O)c4C[C@H]3O)c2c1)c1cc(O)c(O)c(O)c1"
RESULT: 0.844

QUERY: Give the reported value of normalized growth for this record: "CCC(=O)c1c(O)cc(O)cc1O"
RESULT: 0.978

QUERY: Could you please provide reported normalized growth for OCC(O)C(O)C(O)C(O)C(O)CO (stereo not drawn) ? Thanks!
RESULT: 1.01

QUERY: Answer with the recorded normalized growth of CO[C@@]1(NC(=O)C(C(=O)O)c2ccc(O)cc2)C(=O)N2C(C(=O)O)=C(CSc3nnnn3C)CO[C@@H]21 (stereo partly drawn) only.
RESULT: 0.985

QUERY: Item CCCCC1C(=O)N(c2ccccc2)N(c2ccc(O)cc2)C1=O (stereo not drawn) : provide normalized growth
RESULT: 0.968

QUERY: Name the recorded normalized growth of the compound listed here: "COc1cccc2c(C)cc(=O)[nH]c12"
RESULT: 0.942

QUERY: For the compound "CCCCCCCCCCCC1=C(O)C(=O)C=C(O)C1=O" , give its measured normalized growth value.
RESULT: 0.87
